Where do these numbers come from? They come from patent US20130204033A1.

Test system: Hep3B
Experiment description: ATP luminescence proliferation assay, Hep3B
Assay type: cell-based, human
Condition label: Homo sapiens, 48 h, read-out: EC50 Hep3B (48 h), ATP luminescence, Hep3B, 48 h incubation
Doc: threshold 100 nM (exclusive). Items with EC50 beneath it return yes; others return no.

Example cases with answers are listed next.
compound=CC[C@H](C)[C@H](NC(=O)[C@H]1CCCCN1C)C(=O)N(C)[C@H](C[C@@H](OC)c1nc(C(=O)N[C@@H](Cc2ccccc2)C(=O)N[C@@H](C)C(=O)OC)cs1)C(C)C class_assignment=yes
compound="CC[C@H](C)[C@H](NC(=O)[C@H]1CCCCN1C)C(=O)N(C)[C@H](C[C@@H](OC(C)=O)c1nc(C(=O)N[C@@H](Cc2ccc(N)cc2)CC(C)C(=O)O)cs1)C(C)C (stereo partly shown)" class_assignment=yes
compound="CCCC(NC(=O)c1csc([C@@H](C[C@H](C(C)C)N(C)C(=O)[C@@H](NC(=O)[C@H]2CCCCN2C)[C@@H](C)CC)OC)n1)C(=O)OC (stereo partly shown)" class_assignment=no
compound="CC[C@H](C)[C@H](NC(=O)[C@H]1CCCCN1C)C(=O)N(COC(=O)CC(C)C)[C@H](C[C@@H](OC(C)=O)c1nc(C(=O)N[C@@H](Cc2ccc(N)cc2)CC(C)C(=O)O)cs1)C(C)C (stereo partly shown)" class_assignment=yes
compound="CC[C@H](C)[C@H](NC(=O)[C@H]1CCCCN1C)C(=O)N(C)[C@H](C[C@@H](OC)c1nc(C(=O)NC(Cc2ccccc2)C[C@H](C)C(=O)O)cs1)C(C)C (stereo partly shown)" class_assignment=yes

Lab note: next compound to report on.
Quick check: does CC[C@H](C)[C@H](NC(=O)[C@H]1CCCCN1C)C(=O)N(C)[C@H](C[C@@H](OC)c1nc(C(=O)N[C@H](CC(=O)OC)Cc2ccccc2)cs1)C(C)C have EC50 under 100 nM?
no

----------
// values below are reported EC50
Test system: HPAC
Experiment description: 3H thymidine proliferation assay, HPAC
Assay type: cell-based, human
Condition label: Homo sapiens, HPAC, read-out: EC50, HPAC, 3H thymidine method, 72 h incubation
Kindly answer with a numeric value in nM, unit omitted.

compound=CC[C@H](C)[C@H](NC(=O)[C@H]1CCCCN1C)C(=O)N(C)[C@H](C[C@@H](OC)c1nc(C(=O)N[C@H](CC(=O)OC)Cc2ccccc2)cs1)C(C)C assay_metric=EC50 unit_label=nM quantitative_result=206

Form field: EC50 recorded for CC[C@H](C)[C@H](NC(=O)[C@H]1CCCCN1C)C(=O)N(C)[C@H](C[C@@H](OC)c1nc(C(=O)NC(Cc2ccccc2)C[C@H](C)C(=O)O)cs1)C(C)C (some centres unmarked) with HPAC (enter value)
3

Form field: EC50 recorded for CC[C@H](C)[C@H](NC(=O)[C@H]1CCCCN1C)C(=O)N(C)[C@H](C[C@@H](OC(C)=O)c1nc(C(=O)N[C@@H](Cc2ccc(N)cc2)CC(C)C(=O)O)cs1)C(C)C (some centres unmarked) with HPAC (enter value)
83

Form field: EC50 recorded for CC[C@H](C)[C@H](NC(=O)[C@H]1CCCCN1C)C(=O)N(COC(=O)CC(C)C)[C@H](C[C@@H](OC(C)=O)c1nc(C(=O)N[C@@H](Cc2ccc(N)cc2)CC(C)C(=O)O)cs1)C(C)C (some centres unmarked) with HPAC (enter value)
0.83
